target-or-test-system: isolated recombinant JAK1 kinase domain (Homo sapiens)
Construct: The activity of the isolated recombinant JAK1 and JAK2 kinase domain was measured
Sequence (P23458 875-1153 limits assumed): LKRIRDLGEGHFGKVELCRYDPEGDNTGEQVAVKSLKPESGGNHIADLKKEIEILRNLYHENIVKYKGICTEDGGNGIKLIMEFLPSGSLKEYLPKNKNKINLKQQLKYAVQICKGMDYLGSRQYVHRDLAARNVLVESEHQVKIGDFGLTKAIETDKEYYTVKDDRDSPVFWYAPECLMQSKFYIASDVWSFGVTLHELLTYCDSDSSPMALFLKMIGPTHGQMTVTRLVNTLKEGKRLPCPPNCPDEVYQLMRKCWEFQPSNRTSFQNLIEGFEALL
test-protocol: JAK1 enzyme assay (Caliper LabChip, Ki)
Assay type: biochemical
condition-description: recombinant JAK1 kinase domain, 25 μM ATP
Documented Ki across a set of compounds

compound	Ki
CS(=O)(=O)c1ccc(OC(F)F)c(-c2n[nH]cc2NC(=O)c2cnn3cccnc23)c1 [Example 4]	0.45 nM
CC(C)Sc1ccc(OC(F)F)c(-c2nn(CC(=O)N3CCC(CN4CCN(CC(=O)N(C)C)CC4)CC3)cc2NC(=O)c2cnn3cccnc23)c1 [Example 114]	1.6 nM
CC(C)Sc1ccc(OC(F)F)c(-c2nn(CC(=O)N3CCC(N4CCOC[C@@H]4CO)CC3)cc2NC(=O)c2cnn3cccnc23)c1 [Example 158]	0.59 nM

###

target-or-test-system: isolated recombinant JAK2 kinase domain (Homo sapiens)
Construct: The activity of the isolated recombinant JAK1 and JAK2 kinase domain was measured
Sequence (O60674 849-1124 limits assumed): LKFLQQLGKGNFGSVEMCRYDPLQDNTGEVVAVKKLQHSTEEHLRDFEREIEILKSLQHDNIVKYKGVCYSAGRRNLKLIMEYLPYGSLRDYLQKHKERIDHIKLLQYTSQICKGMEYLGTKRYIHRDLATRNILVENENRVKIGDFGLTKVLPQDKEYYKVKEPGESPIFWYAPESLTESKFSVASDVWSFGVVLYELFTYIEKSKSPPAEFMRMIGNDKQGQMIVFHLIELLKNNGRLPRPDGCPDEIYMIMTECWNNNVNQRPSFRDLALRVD
test-protocol: JAK2 enzyme assay (Caliper LabChip, Ki)
condition-description: 25 μM ATP
assay-endpoint: log10(Ki) (log10 of the value in nM)

O=C(Nc1cn(CC(=O)N2CCC(N3CCOCC3)CC2)nc1-c1cc(SC2COC2)ccc1OC(F)F)c1cnn2cccnc12 0.28
CC(C)Sc1ccc(OC(F)F)c(-c2nn(CC(=O)N3CCC(N4CC[S+]([O-])CC4)CC3)cc2NC(=O)c2cnn3cccnc23)c1 -0.77
CSc1ccc(OC(F)F)c(-c2nn(CC(=O)N3CCN([C@H]4CC[C@H](C#N)CC4)CC3)cc2NC(=O)c2cnn3cccnc23)c1 -0.22
CC(F)(F)CNC1CCN(C(=O)Cn2cc(NC(=O)c3cnn4cccnc34)c(-c3cc(SC4COC4)ccc3OC(F)F)n2)CC1 0.23
CSc1ccc(OC(F)F)c(-c2nn(CC(=O)N3CCC(N(C)CC(C)(C)C#N)CC3)cc2NC(=O)c2cnn3cccnc23)c1 -0.41
CSc1ccc(OC(F)F)c(-c2nn(CC(=O)N3CCC(N4CCO[C@H](CO)C4)CC3)cc2NC(=O)c2cnn3cccnc23)c1 -0.28
O=C(Nc1cn(CC(=O)N2CCC(N3CCOCC3)CC2)nc1-c1cc(SC2CC2)ccc1OC(F)F)c1cnn2cccnc12 -0.19
CSc1ccc(OC(F)F)c(-c2nn(CC(=O)N3CCC(N(C)CC(=O)N(C)C)CC3)cc2NC(=O)c2cnn3cccnc23)c1 -0.05
O=C(Nc1cn(CCN[C@@H]2CCCOC2)nc1-c1cc(SC2COC2)ccc1OC(F)F)c1cnn2cccnc12 -0.12
CSc1ccc(OC(F)F)c(-c2nn(CC(=O)N3CCC(N4CCN(C5COC5)CC4)CC3)cc2NC(=O)c2cnn3cccnc23)c1 -0.15
CC(C)Sc1ccc(OC(F)F)c(-c2nn(C[C@H]3CCCN3)cc2NC(=O)c2cnn3cccnc23)c1 -0.11
CSc1ccc(OC(F)F)c(-c2nn(CC(=O)N3CCN(CC4CCN(CC(=O)N5CCOCC5)CC4)CC3)cc2NC(=O)c2cnn3cccnc23)c1 -0.15
CSc1ccc(OC(F)F)c(-c2nn(CC(=O)N3CCC(N4CCN(CC(=O)N5CCOCC5)CC4)CC3)cc2NC(=O)c2cnn3cccnc23)c1 -0.31
CSc1ccc(OC(F)F)c(-c2nn(CC(=O)N3CCC(N4CCn5cncc5C4)CC3)cc2NC(=O)c2cnn3cccnc23)c1 -0.44
CSc1ccc(OC(F)F)c(-c2nn(C3(CC#N)CNC3)cc2NC(=O)c2cnn3cccnc23)c1 -0.48
CSc1ccc(OC(F)F)c(-c2nn(CC(=O)N3CCN([C@H]4CC[C@@H](C#N)CC4)CC3)cc2NC(=O)c2cnn3cccnc23)c1 -0.25
CC(C)Sc1ccc(OC(F)F)c(-c2nn(CC(=O)N3CCC(NCC(=O)N(C)C)CC3)cc2NC(=O)c2cnn3cccnc23)c1 0.08
